assay: Liver microsome stability assay; format: in vitro ADME, human; conditions: human, liver microsomes, pH 7.4, human liver microsomes; read-out: CL (intrinsic clearance)
readout_name: microsomal CLint (µL/min/mg)

# annotated cases, reported microsomal CLint shown
1. COCCN1CCN(CC(=O)Nc2ccc(Nc3nccc(Oc4ccc(NC(=O)C5(C(=O)Nc6ccc(F)cc6)CC5)cc4)n3)cc2)CC1 [compound 13k] : 124
2. CN(C)CCNCC(=O)Nc1ccc(Nc2nccc(Oc3ccc(NC(=O)C4(C(=O)Nc5ccc(F)cc5)CC4)cc3)n2)cc1 [compound 13j] : 152
3. COCCNc1cccc(Nc2nccc(Oc3ccc(NC(=O)C4(C(=O)Nc5ccc(F)cc5)CC4)cc3)n2)c1 [compound 13b] : 90.5

a. CC(=O)N1CCN(c2cccc(Nc3nccc(Oc4ccc(NC(=O)C5(C(=O)Nc6ccc(F)cc6)CC5)cc4)n3)c2)CC1 [compound 13e]
b. CC(=O)N1CCN(c2cccc(Nc3nccc(Oc4ccc(NC(=O)c5c(C)n(C)n(-c6ccccc6)c5=O)cc4)n3)c2)CC1 [compound 17f]
c. Cc1c(C(=O)Nc2ccc(Oc3ccnc(Nc4cccc(OC5CCN(C)CC5)c4)n3)cc2)c(=O)n(-c2ccccc2)n1C [compound 17c]
Would you mind ranking these compounds by ascending microsomal CLint? Form entry: labels listed in requested order. c, b, a
(c: 26 µL/min/mg, b: 68 µL/min/mg, a: 114 µL/min/mg)

---

tested on: PC-3 prostate cancer; assay: Antiproliferation CCK-8 assay, PC-3; type: cell-based; details: Homo sapiens, PC-3; CCK-8; read-out: IC50 PC-3 cells
readout_name: IC50 (µM)
Only the number, expressed in µM, is required.

Using the record for Cc1c(C(=O)Nc2ccc(Oc3ccnc(Nc4cccc(OC5CCN(C)CC5)c4)n3)cc2)c(=O)n(-c2ccccc2)n1C [compound 17c] , state its measured IC50. 3.79

---

tested on: MDA-MB-231; assay: Antiproliferation CCK-8 assay, MDA-MB-231; format: cell-based; settings: Homo sapiens, CCK-8, 72 h
readout_name: IC50 (µM)

a. Cc1c(C(=O)Nc2ccc(Oc3ccnc(Nc4cccc(OC5CCN(C)CC5)c4)n3)cc2)c(=O)n(-c2ccccc2)n1C [compound 17c]
b. COc1cc2nccc(Oc3ccc(NC(=O)C4(C(=O)Nc5ccc(F)cc5)CC4)cc3)c2cc1OC [cabozantinib, reference compound]
// compare: a vs b , metric IC50, want the smaller Indicate your choice by writing its label. a
(a: 2.31 µM, b: 4.62 µM)

---

tested on: HepG2; assay: Antiproliferation CCK-8 assay, HepG2; type: cell-based; conditions: Homo sapiens, CCK-8, 72 h
readout_name: IC50 (µM)

a. COc1cc2nccc(Oc3ccc(NC(=O)C4(C(=O)Nc5ccc(F)cc5)CC4)cc3)c2cc1OC [cabozantinib, reference compound]
b. Cc1c(C(=O)Nc2ccc(Oc3ccnc(Nc4cccc(OC5CCN(C)CC5)c4)n3)cc2)c(=O)n(-c2ccccc2)n1C [compound 17c]
// compare: a vs b , metric IC50, want the smaller Indicate your choice by writing its label. b

---

experiment: Plasma protein binding, equilibrium dialysis, human plasma; format: in vitro ADME; details: human, plasma, human plasma, 1 μM; read-out: Mean Fb (PPB) (converted)
readout_name: fraction unbound at 6 h, 1 μM
Give the figure only, with no unit attached.

Using the record for Cc1c(C(=O)Nc2ccc(Oc3ccnc(Nc4cccc(OC5CCN(C)CC5)c4)n3)cc2)c(=O)n(-c2ccccc2)n1C [compound 17c] , state its measured fraction unbound at 6 h, 1 μM. 0.016
